target: T1, human HSP70 protein 8 (HSPA8), two-hybrid fusion in pEG202 (human, UniProt P11142 1-646); experiment: two-hybrid; quantitative liquid beta-galactosidase assays; values as a percentage of the cdc6/TTC4 interaction; conditions: partners not purified
T1 construct: HSP70 protein 8 (HSPA8), human full length cDNA clone from Origene, cloned in the BamH1 and Xho1 sites of pEG202; also called HuHSP70; source: yeast two-hybrid fusion
T1 sequence (P11142 whole entry, the tested form may be a part): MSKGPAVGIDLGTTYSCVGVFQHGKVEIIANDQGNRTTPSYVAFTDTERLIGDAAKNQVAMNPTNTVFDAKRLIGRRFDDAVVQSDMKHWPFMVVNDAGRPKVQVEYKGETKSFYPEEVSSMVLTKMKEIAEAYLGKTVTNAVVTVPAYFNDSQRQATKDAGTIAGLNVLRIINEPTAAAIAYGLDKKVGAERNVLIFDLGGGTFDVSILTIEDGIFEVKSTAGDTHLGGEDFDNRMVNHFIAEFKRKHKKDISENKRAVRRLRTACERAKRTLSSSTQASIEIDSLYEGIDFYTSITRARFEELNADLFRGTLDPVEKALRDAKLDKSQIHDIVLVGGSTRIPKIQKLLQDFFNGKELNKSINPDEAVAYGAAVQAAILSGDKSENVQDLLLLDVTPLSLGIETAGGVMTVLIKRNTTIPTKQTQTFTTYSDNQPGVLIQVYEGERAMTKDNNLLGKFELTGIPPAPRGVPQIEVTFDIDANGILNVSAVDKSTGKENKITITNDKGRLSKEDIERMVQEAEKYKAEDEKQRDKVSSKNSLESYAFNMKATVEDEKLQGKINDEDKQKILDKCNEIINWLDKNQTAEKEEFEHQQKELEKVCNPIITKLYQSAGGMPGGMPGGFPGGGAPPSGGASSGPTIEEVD
experimentalEndpoint: two-hybrid beta-galactosidase, percentage of the cdc6/TTC4 interaction (%)
# number only, unit % dropped from output

Which two-hybrid beta-galactosidase, percentage of the cdc6/TTC4 interaction value is on record for TTC4-201TG (67IM), two-hybrid fusion in pJG4.5 (natural protein, human, UniProt O95801 1-387, looked up, TTC4, human, with a point mutation reported in melanoma samples, made by site-directed mutagenesis in TTC4 (pJG4.5); also called TTC4 codon 67 I to M; source: yeast two-hybrid fusion) MEQPGQDPTSDDVMDSFLEKFQSQPYRGGFHEDQWEKEFEKVPLFMSRAPSEIDPRENPDLACLQSMIFDEERSPEEQAKTYKDEGNDYFKEKDYKKAVISYTEGLKKKCADPDLNAVLYTNRAAAQYYLGNFRSALNDVTAARKLKPCHLKAIIRGALCHLELKHFAEAVNWCDEGLQIDAKEKKLLEMRAKADKLKRIEQRDVRKANLKEKKERNQNEALLQAIKARNIRLSEAACEDEDSASEGLGELFLDGLSTENPHGARLSLDGQGRLSWPVLFLYPEYAQSDFISAFHEDSRFIDHLMVMFGETPSWDLEQKYCPDNLEVYFEDEDRAELYRVPAKSTLLQVLQHQRYFVKALTPAFLVCVGSSPFCKNFLRGRKVYQIR ? 70

Try human TTC4, two-hybrid fusion in pJG4.5 (natural protein, UniProt O95801 1-387, looked up, TTC4 (tetratricopeptide repeat protein 4), human; full length gene, insert amplified and cloned in the EcoR1 and Xho sites of pJG4.5; source: yeast two-hybrid fusion) MEQPGQDPTSDDVMDSFLEKFQSQPYRGGFHEDQWEKEFEKVPLFMSRAPSEIDPRENPDLACLQSIIFDEERSPEEQAKTYKDEGNDYFKEKDYKKAVISYTEGLKKKCADPDLNAVLYTNRAAAQYYLGNFRSALNDVTAARKLKPCHLKAIIRGALCHLELKHFAEAVNWCDEGLQIDAKEKKLLEMRAKADKLKRIEQRDVRKANLKEKKERNQNEALLQAIKARNIRLSEAACEDEDSASEGLGELFLDGLSTENPHGARLSLDGQGRLSWPVLFLYPEYAQSDFISAFHEDSRFIDHLMVMFGETPSWDLEQKYCPDNLEVYFEDEDRAELYRVPAKSTLLQVLQHQRYFVKALTPAFLVCVGSSPFCKNFLRGRKVYQIR next. 80

Same read-out for TTC4-230AC (77EA), two-hybrid fusion in pJG4.5 (natural protein, human, UniProt O95801 1-387, looked up, TTC4, human, with a point mutation reported in melanoma samples, made by site-directed mutagenesis in TTC4 (pJG4.5); also called TTC4 codon 77 E to A; source: yeast two-hybrid fusion) MEQPGQDPTSDDVMDSFLEKFQSQPYRGGFHEDQWEKEFEKVPLFMSRAPSEIDPRENPDLACLQSIIFDEERSPEAQAKTYKDEGNDYFKEKDYKKAVISYTEGLKKKCADPDLNAVLYTNRAAAQYYLGNFRSALNDVTAARKLKPCHLKAIIRGALCHLELKHFAEAVNWCDEGLQIDAKEKKLLEMRAKADKLKRIEQRDVRKANLKEKKERNQNEALLQAIKARNIRLSEAACEDEDSASEGLGELFLDGLSTENPHGARLSLDGQGRLSWPVLFLYPEYAQSDFISAFHEDSRFIDHLMVMFGETPSWDLEQKYCPDNLEVYFEDEDRAELYRVPAKSTLLQVLQHQRYFVKALTPAFLVCVGSSPFCKNFLRGRKVYQIR ? 70

Next binder: TTC4-651-TA (217NK), two-hybrid fusion in pJG4.5 (natural protein, human, UniProt O95801 1-387, looked up, TTC4, human, with a point mutation reported in melanoma samples, made by site-directed mutagenesis in TTC4 (pJG4.5); also called TTC4 codon 217 N to K; source: yeast two-hybrid fusion) MEQPGQDPTSDDVMDSFLEKFQSQPYRGGFHEDQWEKEFEKVPLFMSRAPSEIDPRENPDLACLQSIIFDEERSPEEQAKTYKDEGNDYFKEKDYKKAVISYTEGLKKKCADPDLNAVLYTNRAAAQYYLGNFRSALNDVTAARKLKPCHLKAIIRGALCHLELKHFAEAVNWCDEGLQIDAKEKKLLEMRAKADKLKRIEQRDVRKANLKEKKERKQNEALLQAIKARNIRLSEAACEDEDSASEGLGELFLDGLSTENPHGARLSLDGQGRLSWPVLFLYPEYAQSDFISAFHEDSRFIDHLMVMFGETPSWDLEQKYCPDNLEVYFEDEDRAELYRVPAKSTLLQVLQHQRYFVKALTPAFLVCVGSSPFCKNFLRGRKVYQIR 70

And what about the binder TTC4-125TA (42VD), two-hybrid fusion in pJG4.5 (natural protein, human, UniProt O95801 1-387, looked up, TTC4, human, with a point mutation reported in melanoma samples, made by site-directed mutagenesis in TTC4 (pJG4.5); also called TTC4 codon 42 V to D; source: yeast two-hybrid fusion) MEQPGQDPTSDDVMDSFLEKFQSQPYRGGFHEDQWEKEFEKDPLFMSRAPSEIDPRENPDLACLQSIIFDEERSPEEQAKTYKDEGNDYFKEKDYKKAVISYTEGLKKKCADPDLNAVLYTNRAAAQYYLGNFRSALNDVTAARKLKPCHLKAIIRGALCHLELKHFAEAVNWCDEGLQIDAKEKKLLEMRAKADKLKRIEQRDVRKANLKEKKERNQNEALLQAIKARNIRLSEAACEDEDSASEGLGELFLDGLSTENPHGARLSLDGQGRLSWPVLFLYPEYAQSDFISAFHEDSRFIDHLMVMFGETPSWDLEQKYCPDNLEVYFEDEDRAELYRVPAKSTLLQVLQHQRYFVKALTPAFLVCVGSSPFCKNFLRGRKVYQIR ? 65
